- SYSTEM NAME: AgrC-IV (Staphylococcus aureus)
- Assay type: cell-based, S. aureus
- TEST CONDITIONS: read-out: AgrC-IV IC50; fluorescence reporter strain; AIPs tested over 200 fM − 10 μM or (b1) 2.5 pM − 10 μM; triplicate
Positions of bridges follow the written chain, without caps; N, C: chain ends. Non-standard residues stand in square brackets, D forms with d. Residues, ends and D or L forms follow the SMILES beside them. NMeI = CC[C@H](C)[C@H](NC)C(=O)O; NMeL = CN[C@@H](CC(C)C)C(=O)O; Nphe = O=C(O)CNCc1ccccc1
IC50 by entry:

Worked cases, IC50 given:
Result for CC[C@H](C)[C@H](NC)C(=O)N[C@@H](CC(N)=O)C(=O)N[C@H]1CSC(=O)[C@H](CC(C)C)NC(=O)[C@H](CC(C)C)NC(=O)[C@H](Cc2ccccc2)NC(=O)[C@H](CC(=O)O)NC1=O [AIP-III N-Me-I1, NMeI-N-(C-D-F-L-L)] (H-[NMeI]NCDFLL; thioester 3-C) , tested on AgrC-IV (Staphylococcus aureus), IC50: 0.0492 µM

Result for CC[C@H](C)[C@H](N)C(=O)N[C@@H](CC(N)=O)C(=O)N[C@H]1CSC(=O)[C@H](CC(C)C)NC(=O)[C@H](C)NC(=O)[C@H](Cc2ccccc2)NC(=O)[C@H](CC(=O)O)NC1=O [AIP-III L6A, I-N-(C-D-F-A-L)] (H-INCDFAL; thioester 3-C) , tested on AgrC-IV (Staphylococcus aureus), IC50: > 0.2 µM

Result for CC[C@H](C)[C@H](N)C(=O)N[C@@H](CC(N)=O)C(=O)N[C@H]1CSC(=O)[C@H](CC(C)C)NC(=O)[C@H](CC(C)C)N(C)C(=O)[C@H](Cc2ccccc2)NC(=O)[C@H](CC(=O)O)NC1=O [AIP-III N-Me-L6, I-N-(C-D-F-NMeL-L)] (H-INCDF[NMeL]L; thioester 3-C) , tested on AgrC-IV (Staphylococcus aureus), IC50: 0.0816 µM

Result for CC(C)C[C@@H]1NC(=O)[C@H](Cc2ccccc2)NC(=O)[C@H](CC(=O)O)NC(=O)[C@@H](NC(=O)[C@H](CC(N)=O)NC(=O)[C@H](C)N)CSC(=O)[C@H](CC(C)C)NC1=O [AIP-III I1A, A-N-(C-D-F-L-L)] (H-ANCDFLL; thioester 3-C) , tested on AgrC-IV (Staphylococcus aureus), IC50: 0.00785 µM

Result for CC[C@H](C)[C@H](N)C(=O)N[C@@H](C)C(=O)N[C@H]1CSC(=O)[C@H](CC(C)C)NC(=O)[C@H](CC(C)C)NC(=O)[C@H](Cc2ccccc2)NC(=O)[C@H](CC(=O)O)NC1=O [AIP-III N2A, I-A-(C-D-F-L-L)] (H-IACDFLL; thioester 3-C) , tested on AgrC-IV (Staphylococcus aureus), IC50: 0.00353 µM

Result for `CC[C@H](C)[C@H](N)C(=O)N[C@@H](CC(N)=O)C(=O)N[C@H]1CSC(=O)[C@H](CC(C)C)NC(=O)[C@H](CC(C)C)NC(=O)[C@H](Cc2ccccc2)NC(=O)CN(CC(=O)O)C1=O` , tested on AgrC-IV (Staphylococcus aureus), IC50: 0.0532 µM

Next up:
Result for CC[C@H](C)[C@H](N)C(=O)N[C@@H](CC(N)=O)C(=O)N[C@H]1CSC(=O)[C@H](CC(C)C)NC(=O)[C@H](CC(C)C)NC(=O)CN(Cc2ccccc2)C(=O)[C@H](CC(=O)O)NC1=O [AIP-III nF5, I-N-(C-D-nF-L-L)] (H-INCD[Nphe]LL; thioester 3-C) , tested on AgrC-IV (Staphylococcus aureus), IC50: 0.000839 µM

---

- SYSTEM NAME: AgrC-III (Staphylococcus aureus)
- Sequence (O33590 1-425): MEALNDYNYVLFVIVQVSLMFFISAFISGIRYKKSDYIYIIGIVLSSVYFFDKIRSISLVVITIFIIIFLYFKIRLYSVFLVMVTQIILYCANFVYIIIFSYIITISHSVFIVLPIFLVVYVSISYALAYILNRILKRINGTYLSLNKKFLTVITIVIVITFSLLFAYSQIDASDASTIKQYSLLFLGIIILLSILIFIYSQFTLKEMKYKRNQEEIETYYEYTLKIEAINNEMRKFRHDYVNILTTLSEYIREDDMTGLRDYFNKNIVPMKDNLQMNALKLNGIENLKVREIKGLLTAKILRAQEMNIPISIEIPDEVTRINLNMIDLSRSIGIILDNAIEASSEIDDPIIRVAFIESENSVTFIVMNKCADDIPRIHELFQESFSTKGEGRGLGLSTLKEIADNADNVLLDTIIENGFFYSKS
- Assay type: cell-based, S. aureus
- TEST CONDITIONS: read-out: AgrC-III IC50; second-generation analogues, fluorescence reporter strain; 200 fM − 10 μM
Positions of bridges follow the written chain, without caps; N, C: chain ends. Residues, ends and D or L forms follow the SMILES beside them.
RECORDED ENDPOINT: IC50

Worked cases, IC50 given:
IC50 measured on CC[C@H](C)[C@H](N)C(=O)N[C@@H](C)C(=O)N[C@H]1CSC(=O)[C@H](CC(C)C)NC(=O)[C@H](CC(C)C)NC(=O)[C@H](Cc2ccccc2)NC(=O)[C@H](C)NC1=O [AIP-III N2A/D4A, I-A-(C-A-F-L-L)] (H-IACAFLL; thioester 3-C) = 0.0657 nM

IC50 measured on CC[C@H](C)[C@H](NC(C)=O)C(=O)N[C@@H](CC(N)=O)C(=O)N[C@H]1CSC(=O)[C@H](CC(C)C)NC(=O)[C@H](CC(C)C)NC(=O)[C@H](Cc2ccccc2)NC(=O)[C@H](CC(=O)O)NC1=O [Ac-AIP-III, Ac-I-N-(C-D-F-L-L)] (Ac-INCDFLL; thioester 3-C) = > 200 nM

IC50 measured on CC[C@H](C)[C@H](NC(=O)[C@H](C)N)C(=O)N[C@@H](CC(N)=O)C(=O)N[C@H]1CSC(=O)[C@H](CC(C)C)NC(=O)[C@H](CC(C)C)NC(=O)[C@H](Cc2ccccc2)NC(=O)[C@H](CC(=O)O)NC1=O [A-AIP-III, A-I-N-(C-D-F-L-L)] (H-AINCDFLL; thioester 4-C) = 27.5 nM

Continuing:
IC50 measured on CC(=O)N[C@H]1CSC(=O)[C@H](CC(C)C)NC(=O)[C@H](CC(C)C)NC(=O)[C@H](Cc2ccc(O)cc2)NC(=O)[C@H](C)NC1=O [tAIP-III D2A/F3Y, Ac-(C-A-Y-L-L)] (Ac-CAYLL; thioester 1-C) = 0.387 nM

IC50 measured on CC(C)C[C@@H]1NC(=O)[C@H](Cc2ccccc2)NC(=O)[C@H](CC(=O)O)NC(=O)[C@@H](NC(=O)[C@H](C)NC(=O)[C@H](C)N)CSC(=O)[C@H](CC(C)C)NC1=O [AIP-III I1A/N2A, A-A-(C-D-F-L-L)] (H-AACDFLL; thioester 3-C) = 2.6 nM

IC50 measured on CC[C@H](C)[C@H](NC(=O)CN)C(=O)N[C@@H](CC(N)=O)C(=O)N[C@H]1CSC(=O)[C@H](CC(C)C)NC(=O)[C@H](CC(C)C)NC(=O)[C@H](Cc2ccccc2)NC(=O)[C@H](CC(=O)O)NC1=O [G-AIP-III, G-I-N-(C-D-F-L-L)] (H-GINCDFLL; thioester 4-C) = > 200 nM

---

- SYSTEM NAME: AgrC-IV (Staphylococcus aureus, UniProt Q309Z2)
- Sequence (Q309Z2 1-430): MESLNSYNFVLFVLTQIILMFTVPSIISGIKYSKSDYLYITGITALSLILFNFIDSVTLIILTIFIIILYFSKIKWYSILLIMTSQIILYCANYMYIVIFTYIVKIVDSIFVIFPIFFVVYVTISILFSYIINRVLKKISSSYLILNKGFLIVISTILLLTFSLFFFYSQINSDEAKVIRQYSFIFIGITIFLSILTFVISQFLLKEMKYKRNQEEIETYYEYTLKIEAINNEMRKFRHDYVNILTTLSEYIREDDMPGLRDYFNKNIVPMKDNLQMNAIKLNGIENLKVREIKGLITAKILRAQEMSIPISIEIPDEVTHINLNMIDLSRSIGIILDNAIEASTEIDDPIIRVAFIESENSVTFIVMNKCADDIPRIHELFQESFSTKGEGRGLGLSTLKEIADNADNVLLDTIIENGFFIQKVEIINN
- Assay type: cell-based, S. aureus
- TEST CONDITIONS: read-out: AgrC-IV IC50; fluorescence reporter strain; AIPs tested over 200 fM − 10 μM or (b1) 2.5 pM − 10 μM; triplicate
Positions of bridges follow the written chain, without caps; N, C: chain ends. Non-standard residues stand in square brackets, D forms with d. Residues, ends and D or L forms follow the SMILES beside them. *: point of attachment. X1 = CC[C@@H](C)C1NC(=O)CN(CC(=O)*)C1=O; NMeN = CN[C@@H](CC(N)=O)C(=O)O
RECORDED ENDPOINT: IC50 (µM)
Report the figure in µM without appending any unit label.

IC50 measured on CC[C@@H](C)C1NC(=O)CN(CC(=O)N[C@H]2CSC(=O)[C@H](CC(C)C)NC(=O)[C@H](CC(C)C)NC(=O)[C@H](Cc3ccccc3)NC(=O)[C@H](CC(=O)O)NC2=O)C1=O (stereo partly drawn) [AIP-III nN2 DKP, (I-nN)-(C-D-F-L-L)] (X1-CDFLL; thioester 1-C) = 0.0848

Next up:
IC50 measured on CC[C@H](C)[C@H](N)C(=O)N(C)[C@@H](CC(N)=O)C(=O)N[C@H]1CSC(=O)[C@H](CC(C)C)NC(=O)[C@H](CC(C)C)NC(=O)[C@H](Cc2ccccc2)NC(=O)[C@H](CC(=O)O)NC1=O [AIP-III N-Me-N2, I-NMeN-(C-D-F-L-L)] (H-I[NMeN]CDFLL; thioester 3-C) = 0.00954

---

pIC50 by entry:
- SYSTEM NAME: AgrC-I (Staphylococcus aureus, UniProt O07911)
- Sequence (O07911 1-430): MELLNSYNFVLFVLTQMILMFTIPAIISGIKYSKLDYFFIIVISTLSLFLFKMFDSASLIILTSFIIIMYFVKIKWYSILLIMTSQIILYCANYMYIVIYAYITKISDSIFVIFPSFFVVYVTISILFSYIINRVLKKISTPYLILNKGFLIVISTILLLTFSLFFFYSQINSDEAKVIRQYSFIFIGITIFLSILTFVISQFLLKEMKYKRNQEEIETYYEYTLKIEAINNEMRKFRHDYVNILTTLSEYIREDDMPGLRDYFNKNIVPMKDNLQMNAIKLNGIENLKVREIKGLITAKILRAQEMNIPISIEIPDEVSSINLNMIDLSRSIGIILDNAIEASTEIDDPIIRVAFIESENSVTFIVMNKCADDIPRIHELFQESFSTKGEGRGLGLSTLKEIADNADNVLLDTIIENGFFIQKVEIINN
- ASSAY TEXT: Hemolysis assay, wild-type group-I strain RN6390B, rabbit red blood cells
- TEST CONDITIONS: read-out: AgrC-I IC50; hemolysis assay; 200 fM − 10 μM
Positions of bridges follow the written chain, without caps; N, C: chain ends. Residues, ends and D or L forms follow the SMILES beside them.
Quick note: pIC50 means taking -log10 of the concentration in moles per liter.

Worked cases, pIC50 given:
pIC50 measured on CC(C)C[C@@H]1NC(=O)[C@H](Cc2ccccc2)NC(=O)[C@H](CC(=O)O)NC(=O)[C@@H](NC(=O)[C@H](CC(N)=O)NC(=O)[C@H](C)N)CSC(=O)[C@H](CC(C)C)NC1=O [AIP-III I1A, A-N-(C-D-F-L-L)] (H-ANCDFLL; thioester 3-C) = 8.34

pIC50 measured on CC(C)C[C@@H]1NC(=O)[C@H](CO)NC(=O)[C@H](CO)NC(=O)[C@@H](NC(=O)[C@H](C)NC(=O)[C@H](CC(N)=O)NC(=O)[C@@H](NC(=O)CN)C(C)C)CSC(=O)[C@H](Cc2ccccc2)NC1=O [AIP-II, G-V-N-A-(C-S-S-L-F), reference compound] (H-GVNACSSLF; thioester 5-C) = 9.05

pIC50 measured on CC[C@H](C)[C@H](N)C(=O)N[C@@H](C)C(=O)N[C@H]1CSC(=O)[C@H](CC(C)C)NC(=O)[C@H](CC(C)C)NC(=O)[C@H](Cc2ccccc2)NC(=O)[C@H](CC(=O)O)NC1=O [AIP-III N2A, I-A-(C-D-F-L-L)] (H-IACDFLL; thioester 3-C) = 8.99

Next up:
pIC50 measured on CC[C@H](C)[C@@H]1NC(=O)[C@H](Cc2ccccc2)NC(=O)[C@H](C)NC(=O)[C@@H](NC(C)=O)CSC(=O)[C@H](CCSC)NC1=O [tAIP-I D2A, Ac-(C-A-F-I-M), reference compound] (Ac-CAFIM; thioester 1-C) = 8.84
